- assay_summary: self-splicing fitness, log relative to wild type (ln ratio); higher = more splicing; Tetrahymena group I intron in knt gene, E. coli kanamycin selection, DiMSum; sequences stand for … in CUCUCU…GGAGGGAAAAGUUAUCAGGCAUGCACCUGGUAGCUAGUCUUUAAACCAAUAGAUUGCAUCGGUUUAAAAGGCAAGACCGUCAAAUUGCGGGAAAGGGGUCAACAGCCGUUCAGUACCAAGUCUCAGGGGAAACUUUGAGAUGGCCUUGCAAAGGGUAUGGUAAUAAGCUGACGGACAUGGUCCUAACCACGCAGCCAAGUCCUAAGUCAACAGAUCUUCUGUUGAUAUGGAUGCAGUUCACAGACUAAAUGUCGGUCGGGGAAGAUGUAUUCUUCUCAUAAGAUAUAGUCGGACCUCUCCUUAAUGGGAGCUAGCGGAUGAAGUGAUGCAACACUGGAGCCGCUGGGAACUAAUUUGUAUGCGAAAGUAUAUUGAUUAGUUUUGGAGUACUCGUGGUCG;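 also: selection with 25 µg/mL kanamycin versus none on LB agar overnight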
- experimental_context: 30 °C
Assign a class from recorded self-splicing fitness (ln); defined classes: interval 1 (below -3), interval 2 (-3 to below -2), interval 3 (-2 or more)

For orientation, consider the following solved cases.
INSERT INTO measurements (macromolecule_sequence, assigned_category) VALUES
  ('CGUCAGCAAUAUUACGUCUG', 'interval 3'),
  ('ACUAAGCAAUAUUACGGCUC', 'interval 3');

Which class does GCGUAGCAAUAUUACGAAUA fall in?
interval 3

Moving on to the next sequence: CGUGAGCAAUAUUACGUUCU
interval 2

Quick one: CGACAGCAAUAUUACGUUCC
interval 3

Follow-up entry: GUACAGCAAUAUUACGAGUC
interval 3

Then GUCAAGCAAUAUUACGUGCC ?
interval 1

Another sequence to look at: UCUUAGCAAUAUUACGCAGU
interval 2

What do you have for AGUCAGCAAUAUUACGUGCU ?
interval 2

Field entry: UUGCAGCAAUAUUACGCCAU
interval 2

Again, but for UCUGAGCAAUAUUACGGCGG
interval 3

Then what about the sequence CAUGAGCAAUAUUACGCUUA ?
interval 1

Next: CCCAAGCAAUAUUACGUUCA
interval 1

What about GACUAGCAAUAUUACGUUGU ?
interval 1

Follow-up item: AUGCAGCAAUAUUACGGUAG
interval 1

Would you mind doing GGAAAGCAAUAUUACGCAAA as well?
interval 2

// next record GUAGAGCAAUAUUACGUACC
interval 1

Next up: UUGCAGCAAUAUUACGCUGU
interval 2

And what about the sequence CGGAAGCAAUAUUACGCAAG ?
interval 3

Next sequence up: ACAAAGCAAUAUUACGAGAU
interval 1

Queued: CGGUAGCAAUAUUACGAGCA
interval 1

Input UUUCAGCAAUAUUACGAGGC
interval 2

Further, for CCAGAGCAAUAUUACGCCUU ?
interval 1

Could you do the same for UGCCAGCAAUAUUACGCUGG , please?
interval 1

Same question, CACAAGCAAUAUUACGGAAU this time
interval 1

###

- assay_summary: self-splicing fitness, log relative to wild type (ln ratio); higher = more splicing; Tetrahymena group I intron in knt gene, E. coli kanamycin selection, DiMSum; sequences stand for … in CUCUCU…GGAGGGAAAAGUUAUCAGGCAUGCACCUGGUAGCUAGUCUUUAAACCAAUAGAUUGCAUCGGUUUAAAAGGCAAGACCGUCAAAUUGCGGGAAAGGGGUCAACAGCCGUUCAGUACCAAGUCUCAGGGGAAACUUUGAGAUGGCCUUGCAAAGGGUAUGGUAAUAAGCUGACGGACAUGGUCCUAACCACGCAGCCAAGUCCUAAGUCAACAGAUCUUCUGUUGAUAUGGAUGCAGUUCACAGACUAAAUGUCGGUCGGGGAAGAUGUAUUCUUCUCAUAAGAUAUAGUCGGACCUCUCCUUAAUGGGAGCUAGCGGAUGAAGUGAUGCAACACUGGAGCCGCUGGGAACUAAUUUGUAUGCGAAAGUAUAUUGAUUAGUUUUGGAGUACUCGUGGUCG
- experimental_context: 30 °C
endpoint_name: self-splicing fitness (ln)
Please respond with just the number, no unit label.

INSERT INTO assay_data (macromolecule_sequence, value) VALUES
  ('CGAAAGCAAUAUUACGGUUA', -1.85),
  ('UUUGAGCAAUAUUACGUCGG', -3.06),
  ('GCGGAGCAAUAUUACGGAGU', -2.51),
  ('GCGCAGCAAUAUUACGGCGG', -2.48),
  ('GGACAGCAAUAUUACGAGAG', -3.81);

So what does the record say about self-splicing fitness (ln) for GAGCAGCAAUAUUACGUGAC ?
-2.38

Next entry: GACUAGCAAUAUUACGGCAA
-0.738

Now consider AGCUAGCAAUAUUACGCAAC .
-3.6

###

- assay_summary: self-splicing fitness, log relative to wild type (ln ratio); higher = more splicing; Tetrahymena group I intron in knt gene, E. coli kanamycin selection, DiMSum; sequences stand for … in CUCUCU…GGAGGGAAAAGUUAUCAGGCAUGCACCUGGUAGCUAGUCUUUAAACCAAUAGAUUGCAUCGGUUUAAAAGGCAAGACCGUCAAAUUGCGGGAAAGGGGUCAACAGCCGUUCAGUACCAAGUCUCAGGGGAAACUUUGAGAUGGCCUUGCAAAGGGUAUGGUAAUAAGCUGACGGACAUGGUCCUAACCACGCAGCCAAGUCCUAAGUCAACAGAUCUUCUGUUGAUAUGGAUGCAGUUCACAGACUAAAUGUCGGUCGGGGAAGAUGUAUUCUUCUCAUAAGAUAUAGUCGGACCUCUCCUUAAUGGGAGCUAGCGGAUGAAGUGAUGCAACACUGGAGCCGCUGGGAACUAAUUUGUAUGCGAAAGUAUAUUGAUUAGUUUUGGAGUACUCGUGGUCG
- experimental_context: 37 °C
self-splicing fitness (ln) overview
The answer should be a number; do not append a unit.

// solved cases for self-splicing fitness (ln) follow
INSERT INTO measurements (macromolecule_sequence, value) VALUES
  ('CCAGAGCAAUAUUACGUUGU', -3),
  ('UACCAGCAAUAUUACGCAGU', -2.62),
  ('UCAAAGCAAUAUUACGUAUG', -2.05);

I would be grateful if you could share the reported self-splicing fitness (ln) for GAGGAGCAAUAUUACGACGG .
-2.07

Try AUGAAGCAAUAUUACGCACC next.
0.751

Another sequence: CCCAAGCAAUAUUACGCUAG
-2.72

Can you check UAGAAGCAAUAUUACGUUUC next?
-0.293

Also CAUAAGCAAUAUUACGUUGU ?
-2.98

Do the same for UGGCAGCAAUAUUACGACAA please
-0.308

Same thing, different sequence: UGGCAGCAAUAUUACGAGUC
-3.11

###

- assay_summary: self-splicing fitness, log relative to wild type (ln ratio); higher = more splicing; Tetrahymena group I intron in knt gene, E. coli kanamycin selection, DiMSum; sequences stand for … in CUCUCU…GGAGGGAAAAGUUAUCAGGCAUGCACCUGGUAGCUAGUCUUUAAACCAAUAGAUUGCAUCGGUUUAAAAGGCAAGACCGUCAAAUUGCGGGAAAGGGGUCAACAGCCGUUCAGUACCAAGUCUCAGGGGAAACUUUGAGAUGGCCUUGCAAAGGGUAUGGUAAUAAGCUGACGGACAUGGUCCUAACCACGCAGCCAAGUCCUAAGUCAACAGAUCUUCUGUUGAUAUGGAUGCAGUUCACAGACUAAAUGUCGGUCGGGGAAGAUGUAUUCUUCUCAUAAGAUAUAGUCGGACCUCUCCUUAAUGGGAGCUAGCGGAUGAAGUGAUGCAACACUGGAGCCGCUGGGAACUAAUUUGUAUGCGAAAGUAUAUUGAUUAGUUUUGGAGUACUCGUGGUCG
- experimental_context: 37 °C
Known self-splicing fitness (ln) of a selection of sequences
# output: bare number, no unit

Record excerpt, results attached:
INSERT INTO assay_data (macromolecule_sequence, endpoint_name, value) VALUES
  ('AAUUAGCAAUAUUACGGGUU', 'self-splicing fitness (ln)', -0.955),
  ('CCGCAGCAAUAUUACGAGAU', 'self-splicing fitness (ln)', -2.2),
  ('AUGCAGCAAUAUUACGCGUU', 'self-splicing fitness (ln)', -2.7),
  ('UACAAGCAAUAUUACGCAUU', 'self-splicing fitness (ln)', -1.63),
  ('AUAUAGCAAUAUUACGCAGU', 'self-splicing fitness (ln)', -3.1),
  ('AAUCAGCAAUAUUACGGAGG', 'self-splicing fitness (ln)', -1.18),
  ('GCUCAGCAAUAUUACGUCGU', 'self-splicing fitness (ln)', 0.486);

Which self-splicing fitness (ln) value is on record for ACCGAGCAAUAUUACGCGAA ?
-3.17
